meta.source: patent US20250034136A1

Test system: p21 induction in HCT116 cells
Assay: p21 induction in HCT116 cells
Assay type: cell-based
Settings: Homo sapiens, HCT-116, 24 h, HCT116 cells, 24 h compound incubation; read-out: P21_EC50
Protocol: The colon carcinoma cell line HCT116 was obtained from ATCC and cultured in growth medium consisting of Mccoy's 5A Medium (Gibco 16600108) supplemented with 10% FBS (Transgene FS201-02) and 100 units/mL penicillin-streptomycin (Gibco 15140122) and maintained at 37° C. under 5% CO2. […] Finally, the p21 signal and the GAPDH signal were quantified using a LI-COR Odyssey CLx Imager machine reading at 800 nm and 700 nm, respectively. […]
test readout: EC50

compound	observed value
CCc1c(N2CCN(C(=O)c3ncnc(C)c3O)C[C@@H]2C)c(=O)c2nc(N3CC[C@H]3COC)cnc2n1CC(=O)Nc1ccc(C(F)(F)F)cc1Cl	500 to 2000 nM
CCc1c(N2CCN(C(=O)c3ncnc(C)c3O)[C@H]3CC[C@@H]32)c(=O)c2nc(N(C)C)cnc2n1CC(=O)Nc1ccc(C(F)(F)F)cc1C	< 500 nM
CCc1c(N2C[C@H]3C[C@@H]2CN3C(=O)c2ncnc(C)c2O)c(=O)c2nc(N(C)C)cnc2n1CC(=O)Nc1ccc(C(F)(F)F)cc1Cl (single isomer, unassigned)	> 5000 nM
CCc1c(N2CCN(C(=O)c3ncnc(C)c3O)CC2)c(=O)c2nc(N3CC4(CC4)C3)cnc2n1CC(=O)Nc1ccc(C(F)(F)F)cc1Cl	500 to 2000 nM
CCc1c(N2CCN(C(=O)c3ncccc3O)CC2)c(=O)c2ncc(C)nc2n1CC(=O)Nc1ccc(C(F)(F)F)cc1Cl	> 5000 nM
CCc1c(N2CCN(C(=O)c3c(OC)ncc(C)c3O)C[C@@H]2C)c(=O)c2nc(C3CC3)cnc2n1CC(=O)Nc1ccc(C(F)(F)F)cc1Cl	< 500 nM

----------
Target: WRN (BV08), human Werner helicase (Uniprot Q14191, amino acids 517-1235 with L1074F point mutation) (Homo sapiens (Human), UniProt Q14191, L1074F)
Sequence (Q14191 other isoform, or with tags, fused parts or gaps L1074F (already in the parent)): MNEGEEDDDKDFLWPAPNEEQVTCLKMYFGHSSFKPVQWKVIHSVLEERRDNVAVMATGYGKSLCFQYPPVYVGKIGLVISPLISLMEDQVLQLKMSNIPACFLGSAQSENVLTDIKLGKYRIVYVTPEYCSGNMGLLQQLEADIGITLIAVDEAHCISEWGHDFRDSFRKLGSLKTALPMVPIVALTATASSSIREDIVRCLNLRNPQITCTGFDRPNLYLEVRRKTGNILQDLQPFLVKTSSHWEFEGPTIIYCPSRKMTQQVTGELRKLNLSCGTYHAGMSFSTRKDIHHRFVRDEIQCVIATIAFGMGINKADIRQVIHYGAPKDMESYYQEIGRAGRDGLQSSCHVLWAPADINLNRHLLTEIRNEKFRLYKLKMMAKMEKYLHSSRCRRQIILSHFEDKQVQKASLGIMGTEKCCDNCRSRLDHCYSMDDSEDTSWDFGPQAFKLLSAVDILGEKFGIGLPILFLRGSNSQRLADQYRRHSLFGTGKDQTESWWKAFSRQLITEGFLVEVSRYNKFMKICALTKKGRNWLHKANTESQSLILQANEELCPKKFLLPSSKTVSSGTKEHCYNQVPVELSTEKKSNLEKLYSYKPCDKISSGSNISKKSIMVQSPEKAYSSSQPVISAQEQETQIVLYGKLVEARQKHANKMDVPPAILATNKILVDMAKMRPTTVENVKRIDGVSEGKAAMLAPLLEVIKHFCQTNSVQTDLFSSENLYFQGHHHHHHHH
Test: WRN (BV08) ADP-Glo assay
Conditions: class symbols A-E, read-out: ADP-Glo_hWRN_IC50
pIC50: −log10 of the molar value.
test readout: pIC50

query smiles	observed value
CCc1c(N2CCN(C(=O)c3ncnc(C)c3O)CC2)c(=O)c2nc(N(C)C)cnc2n1CC(=O)Nc1ccc(S(F)(F)(F)(F)F)cc1Cl	7.30 to 8.30
CCc1c(N2CCN(C(=O)c3ncnc(C)c3O)[C@H](C)C2)c(=O)c2nc(N(C)C)cnc2n1CC(=O)Nc1ccc(C(F)(F)F)cc1Cl	7.30 to 8.30
CCc1c(N2CCN(C(=O)c3ncnc(C)c3O)[C@H]3CC[C@@H]32)c(=O)c2nc(N3CCOCC3)cnc2n1CC(=O)Nc1ccc(C(F)(F)F)cc1Cl	7.30 to 8.30
CCc1c(N2CCN(C(=O)c3ncnc(C)c3O)CC2)c(=O)c2nc(C(C)(C)O)c(C)nc2n1CC(=O)Nc1ccc(C(F)(F)F)cc1Cl	7.00 to 7.30
CCc1c(N2CCN(C(=O)c3cnn(C)c3)CC2)c(=O)c2ncc(C)nc2n1CC(=O)Nc1ccc(C(F)(F)F)cc1Cl	7.00 to 7.30
CCc1c(N2CCN(C(=O)c3cccc4ncoc34)[C@H]3CC[C@@H]32)c(=O)c2nc(N(C)C)cnc2n1CC(=O)Nc1ccc(C(F)(F)F)cc1Cl	7.30 to 8.30

----------
Listed below: pEC50 values for each entry.
System: p21 induction in HCT116 cells
Assay: p21 induction in HCT116 cells
Assay type: cell-based
Details: Homo sapiens, HCT-116, 24 h, HCT116 cells, 24 h compound incubation; read-out: P21_EC50
pEC50: −log10 of the molar value.
test readout: pEC50

query smiles	assayed system	test readout	observed value
CCc1c(N2CCN(C(=O)c3ncnc(C)c3O)[C@H]3CC[C@@H]32)c(=O)c2nc(-c3cn[nH]c3)cnc2n1CC(=O)Nc1ccc(C(F)(F)F)cc1Cl	p21 induction in HCT116 cells	pEC50	> 6.30
CCc1c(N2CCN(C(=O)c3ncnc(C)c3O)CC2)c(=O)c2nc(N3CCOCC3)cnc2n1CC(=O)Nc1ccc(C(F)(F)F)cc1Cl	p21 induction in HCT116 cells	pEC50	< 5.30
CCc1c(N2CCN(C(=O)c3ncnc(C)c3O)[C@H]3CC[C@@H]32)c(=O)c2nc(N3CCCC3)cnc2n1CC(=O)Nc1ccc(C(F)(F)F)cc1Cl	p21 induction in HCT116 cells	pEC50	> 6.30
CCc1c(N2CCN(C(=O)c3ncnc(C)c3O)CC2)c(=O)c2nc(N3CC(OC)C3)cnc2n1CC(=O)Nc1ccc(C(F)(F)F)cc1Cl	p21 induction in HCT116 cells	pEC50	5.30 to 5.70
CCc1c(N2CCN(C(=O)c3ncnc(C)c3O)[C@H]3CC[C@@H]32)c(=O)c2nc(N(C)C)cnc2n1CC(=O)Nc1ccc(S(F)(F)(F)(F)F)cc1Cl	p21 induction in HCT116 cells	pEC50	> 6.30
CCc1c(N2CCN(C(=O)c3ncnc(C)c3O)CC2)c(=O)c2nc(N(C)CCOC)cnc2n1CC(=O)Nc1ccc(C(F)(F)F)cc1Cl	p21 induction in HCT116 cells	pEC50	< 5.30

----------
Molecular target: WRN (BV08), human Werner helicase (Uniprot Q14191, amino acids 517-1235 with L1074F point mutation) (Homo sapiens (Human), UniProt Q14191, L1074F)
Assay: WRN (BV08) ADP-Glo assay
Conditions: class symbols A-E, read-out: ADP-Glo_hWRN_IC50

compound	IC50
CCc1c(N2CCN(C(=O)c3ncnc(C)c3O)CC2)c(=O)c2nc(N3CC(F)(F)C3)cnc2n1CC(=O)Nc1ccc(C(F)(F)F)cc1Cl	5 to 50 nM
CCc1c(N2CCN(C(=O)c3ncnc(C)c3O)CC2)c(=O)c2nc(N3CCCCC3)cnc2n1CC(=O)Nc1ccc(C(F)(F)F)cc1Cl	5 to 50 nM
CCc1c(N2CCN(C(=O)c3ncnc(C)c3O)CC2)c(=O)c2nc(OC(F)F)cnc2n1CC(=O)Nc1ccc(C(F)(F)F)cc1Cl	100 to 500 nM
CCc1c(N2CCN(C(=O)c3c(F)cnc(OC)c3O)CC2)c(=O)c2ncc(C)nc2n1CC(=O)Nc1ccc(C(F)(F)F)cc1Cl	5 to 50 nM
CCc1c(N2CCN(C(=O)c3ncnc(C)c3O)CC2)c(=O)c2nc(N3CCC[C@H]3C)cnc2n1CC(=O)Nc1ccc(C(F)(F)F)cc1Cl	5 to 50 nM
CCc1c(N2CCN(C(=O)c3ncnc(C)c3O)[C@H]3CC[C@@H]32)c(=O)c2nc(C)c(C)nc2n1CC(=O)Nc1ccc(C(F)(F)F)cc1Cl	5 to 50 nM
CCc1c(N2CCN(C(=O)c3ncnc(C)c3O)CC2)c(=O)c2nc(/C=C/COC)cnc2n1CC(=O)Nc1ccc(C(F)(F)F)cc1Cl	5 to 50 nM
CCc1c(N2CCN(C(=O)c3ncnc(C)c3O)[C@H]3CC[C@@H]32)c(=O)c2nc(N(C)C3CCC3O)cnc2n1CC(=O)Nc1ccc(C(F)(F)F)cc1Cl (stereo partly shown)	5 to 50 nM
CCc1c(N2CCN(C(=O)c3ncnc(C)c3O)[C@H]3CC[C@@H]32)c(=O)c2nc(N(C)C)cnc2n1CC(=O)Nc1ccc(S(F)(F)(F)(F)F)cc1Cl	5 to 50 nM
CCc1c(N2CCN(C(=O)c3ncnc(C)c3O)CC2)c(=O)c2nc(N3CCC(F)(F)C3)cnc2n1CC(=O)Nc1ccc(C(F)(F)F)cc1Cl	5 to 50 nM
CCc1c(N2CCN(C(=O)c3ncnc(C)c3O)CC2)c(=O)c2nc(N(C)C)cnc2n1CC(=O)NC12CC(C(F)(F)F)(C1)C2	100 to 500 nM
CCc1c(N2CCN(C(=O)c3c(OC)ncc(C)c3O)[C@H]3CC[C@@H]32)c(=O)c2nc(N(C)C)cnc2n1CC(=O)Nc1ccc(C(F)(F)F)cc1Cl	5 to 50 nM
CCc1c(N2CCN(C(=O)c3ncnc(C)c3O)CC2)c(=O)c2nc(O)cnc2n1CC(=O)Nc1ccc(C(F)(F)F)cc1Cl	5 to 50 nM

----------
Listed below: pEC50 values for each entry.
Tested on: p21 induction in HCT116 cells
Assay: p21 induction in HCT116 cells
Type: cell-based
Conditions: Homo sapiens, HCT-116, 24 h, HCT116 cells, 24 h compound incubation; read-out: P21_EC50
Description: The colon carcinoma cell line HCT116 was obtained from ATCC and cultured in growth medium consisting of Mccoy's 5A Medium (Gibco 16600108) supplemented with 10% FBS (Transgene FS201-02) and 100 units/mL penicillin-streptomycin (Gibco 15140122) and maintained at 37° C. under 5% CO2. […] Finally, the p21 signal and the GAPDH signal were quantified using a LI-COR Odyssey CLx Imager machine reading at 800 nm and 700 nm, respectively. […]
pEC50: −log10 of the molar value.
test readout: pEC50

compound	observed value
CCc1c(N2CCN(C(=O)c3ncnc(C)c3O)[C@H]3CCC32)c(=O)c2nc(OC)c(C)nc2n1CC(=O)Nc1ccc(C(F)(F)F)cc1Cl (mixture of isomers)	5.70 to 6.30
CCc1c(N2CCN(C(=O)c3ncnc(C)c3O)[C@@H](COC)C2)c(=O)c2nc(N(C)C)cnc2n1CC(=O)Nc1ccc(C(F)(F)F)cc1Cl (single isomer, unassigned)	< 5.30
CCc1c(N2CCN(C(=O)c3c(OC)ncc(C)c3O)C[C@@H]2C)c(=O)c2nc(N3CC[C@H]4C[C@H]43)cnc2n1CC(=O)Nc1ccc(C(F)(F)F)cc1Cl (single isomer, unassigned)	> 6.30
CCc1c(N2CCN(C(=O)c3c(OC)ncc(C)c3O)CC2)c(=O)c2nc(C3CC3)cnc2n1CC(=O)Nc1ccc(C(F)(F)F)cc1Cl	> 6.30
CCc1c(N2CCN(C(=O)c3c(O)ccc4[nH]ncc34)CC2)c(=O)c2ncc(C)nc2n1CC(=O)Nc1ccc(C(F)(F)F)cc1Cl	< 5.30
CCc1c(N2CCN(C(=O)c3ncnc(C)c3O)[C@H]3CC[C@@H]32)c(=O)c2nc(N3CC(F)(F)C3)cnc2n1CC(=O)Nc1ccc(C(F)(F)F)cc1Cl	> 6.30
CCc1c(N2CCN(C(=O)c3ncnc(C)c3O)[C@H]3CC[C@@H]32)c(=O)c2nc(OC3CCC3)cnc2n1CC(=O)Nc1ccc(C(F)(F)F)cc1Cl	> 6.30
CCc1c(N2CCN(C(=O)c3ncnc(C)c3O)CC2)c(=O)c2nc(OC3CCC3)cnc2n1CC(=O)Nc1ccc(C(F)(F)F)cc1Cl	< 5.30
CCO/C=C/c1cnc2c(n1)c(=O)c(N1CCN(C(=O)c3ncnc(C)c3O)CC1)c(CC)n2CC(=O)Nc1ccc(C(F)(F)F)cc1Cl	> 6.30
CCc1c(N2CCN(C(=O)c3ncnc(C)c3O)[C@H]3CC[C@@H]32)c(=O)c2nc(N(C)C[C@H](C)OC)cnc2n1CC(=O)Nc1ccc(C(F)(F)F)cc1Cl	> 6.30
CCc1c(N2CCN(C(=O)c3ncnc(C)c3O)[C@H]3CC[C@@H]32)c(=O)c2nc(N(C)C)c(C)nc2n1CC(=O)Nc1ccc(C(F)(F)F)cc1Cl	> 6.30
CCc1c(N2CCN(C(=O)c3ncnc(C)c3O)[C@H]3CC[C@@H]32)c(=O)c2nc(N(C)C)cnc2n1CC(=O)Nc1ccc(OC(F)(F)F)cc1F	> 6.30
